Origin of values: the supplement of paper PMC10307832

# Test system: LOU-NH91
# test-protocol: relative viability (nuclei count vs DMSO), 5 days (fraction); higher = more cells survive
# assay-context: first compound 0.1 µM
This section presents molecules with their documented relative viability values.
Give the figure by itself; no unit, no explanation.

(Q) Dear colleague, please send me the reported relative viability for O=c1cc(N2CCOCC2)oc2c(-c3cccc4c3sc3ccccc34)cccc12 + CS(=O)(=O)N1CCN(Cc2cc3nc(-c4cccc5[nH]ncc45)nc(N4CCOCC4)c3s2)CC1 [Pictilisib] (partner 1 µM) when you can.
(A) 0.525

(Q) Dear colleague, please send me the reported relative viability for CCN(CC)CCCCNc1ncc2cc(-c3cc(OC)cc(OC)c3)c(NC(=O)NC(C)(C)C)nc2n1 + Cc1cc(Nc2cc(N3CCN(C)CC3)nc(Sc3ccc(NC(=O)C4CC4)cc3)n2)n[nH]1 [Tozasertib] (partner 0.1 µM) when you can.
(A) 0.697

(Q) Dear colleague, please send me the reported relative viability for O=c1cc(N2CCOCC2)oc2c(-c3cccc4c3sc3ccccc34)cccc12 + Cc1cc(Nc2cc(N3CCN(C)CC3)nc(Sc3ccc(NC(=O)C4CC4)cc3)n2)n[nH]1 [Tozasertib] (partner 0.1 µM) when you can.
(A) 0.655

(Q) Dear colleague, please send me the reported relative viability for CCN(CC)CCCCNc1ncc2cc(-c3cc(OC)cc(OC)c3)c(NC(=O)NC(C)(C)C)nc2n1 + CCNC(=O)c1noc(-c2cc(C(C)C)c(O)cc2O)c1-c1ccc(CN2CCOCC2)cc1 [Luminespib] (partner 0.01 µM) when you can.
(A) 0.36

----------
# System: NCI-H2087
# test-protocol: relative viability (nuclei count vs DMSO), 5 days (fraction); higher = more cells survive
# assay-context: first compound 0.3162 µM
readout-name: relative viability
Give the figure by itself; no unit, no explanation.

Look over these answered cases.
molecule: O=c1cc(N2CCOCC2)oc2c(-c3cccc4c3sc3ccccc34)cccc12 + CC(C)C[C@H](NC(=O)[C@H](Cc1ccccc1)NC(=O)c1cnccn1)B(O)O [Bortezomib] (partner 0.002 µM)
target-or-system: NCI-H2087
endpoint-value: 0.953
//
molecule: O=c1cc(N2CCOCC2)oc2c(-c3cccc4c3sc3ccccc34)cccc12 + C[C@@H](Oc1cc(-c2cnn(C3CCNCC3)c2)cnc1N)c1c(Cl)ccc(F)c1Cl [Crizotinib] (partner 1 µM)
target-or-system: NCI-H2087
endpoint-value: 0.682
//
molecule: CCN(CC)CCCCNc1ncc2cc(-c3cc(OC)cc(OC)c3)c(NC(=O)NC(C)(C)C)nc2n1 + COc1cccc2cc(-c3nc([C@H]4CC[C@H](C(=O)O)CC4)n4ncnc(N)c34)[nH]c12 [OSI-027] (partner 0.5 µM)
target-or-system: NCI-H2087
endpoint-value: 0.636
//
molecule: CCN(CC)CCCCNc1ncc2cc(-c3cc(OC)cc(OC)c3)c(NC(=O)NC(C)(C)C)nc2n1 + COc1cc2c(Oc3ccc(NC(=O)C4(C(=O)Nc5ccc(F)cc5)CC4)cc3F)ccnc2cc1OCCCN1CCOCC1 [Foretinib] (partner 0.25 µM)
target-or-system: NCI-H2087
endpoint-value: 1.16
//
molecule: O=c1cc(N2CCOCC2)oc2c(-c3cccc4c3sc3ccccc34)cccc12 + Cc1nc(NC(=O)N2CCC[C@H]2C(N)=O)sc1-c1ccnc(C(C)(C)C(F)(F)F)c1 [Alpelisib] (partner 2 µM)
target-or-system: NCI-H2087
endpoint-value: 1.23

Alright, here's another molecule for you.
(Q) Dear colleague, please send me the reported relative viability for CCN(CC)CCCCNc1ncc2cc(-c3cc(OC)cc(OC)c3)c(NC(=O)NC(C)(C)C)nc2n1 + CS(=O)(=O)CCNCc1ccc(-c2ccc3ncnc(Nc4ccc(OCc5cccc(F)c5)c(Cl)c4)c3c2)o1 [Lapatinib] (partner 2 µM) when you can.
(A) 1.06

----------
# Test system: LK-2
# test-protocol: relative viability (nuclei count vs DMSO), 5 days (fraction); higher = more cells survive
# assay-context: first compound 0.08 µM
This section presents molecules with their documented relative viability values.
Give the figure by itself; no unit, no explanation.

Look over these answered cases.
molecule: COc1nc(C)cnc1NS(=O)(=O)c1cccnc1-c1ccc(-c2nnco2)cc1 [Zibotentan] + Cc1nc(NC(=O)N2CCC[C@H]2C(N)=O)sc1-c1ccnc(C(C)(C)C(F)(F)F)c1 [Alpelisib] (partner 2 µM)
target-or-system: LK-2
relative viability: 1.08

molecule: COc1nc(C)cnc1NS(=O)(=O)c1cccnc1-c1ccc(-c2nnco2)cc1 [Zibotentan] + CC(=O)Nc1cccc(-n2c(=O)n(C3CC3)c(=O)c3c(Nc4ccc(I)cc4F)n(C)c(=O)c(C)c32)c1 [Trametinib] (partner 0.02 µM)
target-or-system: LK-2
relative viability: 0.881

molecule: COc1nc(C)cnc1NS(=O)(=O)c1cccnc1-c1ccc(-c2nnco2)cc1 [Zibotentan] + Cc1nc(Nc2ncc(C(=O)Nc3c(C)cccc3Cl)s2)cc(N2CCN(CCO)CC2)n1 [Dasatinib] (partner 0.075 µM)
target-or-system: LK-2
relative viability: 0.293

(Q) Dear colleague, please send me the reported relative viability for COc1nc(C)cnc1NS(=O)(=O)c1cccnc1-c1ccc(-c2nnco2)cc1 [Zibotentan] + CC1(C)CCC(c2ccc(Cl)cc2)=C(CN2CCN(c3ccc(C(=O)NS(=O)(=O)c4ccc(N[C@H](CCN5CCOCC5)CSc5ccccc5)c(S(=O)(=O)C(F)(F)F)c4)cc3)CC2)C1 [Navitoclax] (partner 0.5 µM) when you can.
(A) 1.1

(Q) Dear colleague, please send me the reported relative viability for COc1nc(C)cnc1NS(=O)(=O)c1cccnc1-c1ccc(-c2nnco2)cc1 [Zibotentan] + CC(=O)c1c(C)c2cnc(Nc3ccc(N4CCNCC4)cn3)nc2n(C2CCCC2)c1=O [Palbociclib] (partner 0.5 µM) when you can.
(A) 0.609

(Q) Dear colleague, please send me the reported relative viability for COc1nc(C)cnc1NS(=O)(=O)c1cccnc1-c1ccc(-c2nnco2)cc1 [Zibotentan] + C[C@]1(O)C[C@@H](c2nc(-c3ccc4ccc(-c5ccccc5)nc4c3)c3c(N)nccn32)C1 [Linsitinib] (partner 1 µM) when you can.
(A) 0.709

(Q) Dear colleague, please send me the reported relative viability for COc1nc(C)cnc1NS(=O)(=O)c1cccnc1-c1ccc(-c2nnco2)cc1 [Zibotentan] + O=C(CCCCCCC(=O)Nc1ccccc1)NO [Vorinostat] (partner 1 µM) when you can.
(A) 0.304

(Q) Dear colleague, please send me the reported relative viability for COc1nc(C)cnc1NS(=O)(=O)c1cccnc1-c1ccc(-c2nnco2)cc1 [Zibotentan] + COc1cc2c(Oc3ccc(NC(=O)C4(C(=O)Nc5ccc(F)cc5)CC4)cc3F)ccnc2cc1OCCCN1CCOCC1 [Foretinib] (partner 0.25 µM) when you can.
(A) 1.37

(Q) Dear colleague, please send me the reported relative viability for O=c1cc(-c2cccc3c2Sc2ccccc2S3)oc(N2CCOCC2)c1 + Nc1nc2[nH]cc(CCc3ccc(C(=O)N[C@@H](CCC(=O)O)C(=O)O)cc3)c2c(=O)[nH]1 [Pemetrexed] (partner 0.2 µM) when you can.
(A) 0.312

----------
# Tested on: NCI-H838
# test-protocol: relative viability (nuclei count vs DMSO), 5 days (fraction); higher = more cells survive
# assay-context: first compound 0.03162 µM
Returns: string. Value is condition met if measured relative viability is below 0.3, and condition not met if it is greater than or equal to it.

The following compounds have reported results that may help.
compound: O=c1cc(N2CCOCC2)oc2c(-c3cccc4c3sc3ccccc34)cccc12 + O=C(c1cc(Cc2n[nH]c(=O)c3ccccc23)ccc1F)N1CCN(C(=O)C2CC2)CC1 [Olaparib] (partner 8 µM)
target-or-system: NCI-H838
class-name: condition not met

compound: CCN(CC)CCCCNc1ncc2cc(-c3cc(OC)cc(OC)c3)c(NC(=O)NC(C)(C)C)nc2n1 + Cc1cc(Nc2cc(N3CCN(C)CC3)nc(Sc3ccc(NC(=O)C4CC4)cc3)n2)n[nH]1 [Tozasertib] (partner 0.1 µM)
target-or-system: NCI-H838
class-name: condition met

(Q) In plain terms, does O=c1cc(N2CCOCC2)oc2c(-c3cccc4c3sc3ccccc34)cccc12 + COc1cccc2cc(-c3nc([C@H]4CC[C@H](C(=O)O)CC4)n4ncnc(N)c34)[nH]c12 [OSI-027] (partner 0.5 µM) come in under 0.3 for relative viability?
(A) condition not met

(Q) In plain terms, does CCN(CC)CCCCNc1ncc2cc(-c3cc(OC)cc(OC)c3)c(NC(=O)NC(C)(C)C)nc2n1 + N=C(N)NC(=N)NCCc1ccccc1 [Phenformin] (partner 250 µM) come in under 0.3 for relative viability?
(A) condition not met

(Q) In plain terms, does O=c1cc(N2CCOCC2)oc2c(-c3cccc4c3sc3ccccc34)cccc12 + CC1(C)CCC(c2ccc(Cl)cc2)=C(CN2CCN(c3ccc(C(=O)NS(=O)(=O)c4ccc(N[C@H](CCN5CCOCC5)CSc5ccccc5)c(S(=O)(=O)C(F)(F)F)c4)cc3)CC2)C1 [Navitoclax] (partner 0.5 µM) come in under 0.3 for relative viability?
(A) condition not met

(Q) In plain terms, does CCN(CC)CCCCNc1ncc2cc(-c3cc(OC)cc(OC)c3)c(NC(=O)NC(C)(C)C)nc2n1 + CCNC(=O)c1noc(-c2cc(C(C)C)c(O)cc2O)c1-c1ccc(CN2CCOCC2)cc1 [Luminespib] (partner 0.01 µM) come in under 0.3 for relative viability?
(A) condition met
